meta.source: the supplement of paper PMC6757056

Listed next: entries and their corresponding normalized RNA/DNA level without ligand (log10).
B1: library; a variant is named by its letters at N, in order (parent)
chain: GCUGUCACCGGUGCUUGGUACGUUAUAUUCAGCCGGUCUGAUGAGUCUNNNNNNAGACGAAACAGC

Variants of: B1
PROTOCOL_DESCRIPTION: normalized RNA/DNA level without ligand (relative to sTRSVctl = 100) (log10 (% of sTRSVctl)); HEK293T overexpressing SLC46A1; higher = less ribozyme self-cleavage, higher mRNA level
CONDITION_NOTES: without (6R,S)-folinic acid; ligand present: no
Reply: number alone, nothing else.

Consider the reported normalized RNA/DNA level without ligand (log10) for these variants:
CGUUAU :: 1.98
GCUUAC :: 2.02
AGCGGU :: 1.95

So for `UGCUUA` , the logged normalized RNA/DNA level without ligand (log10) turned out to be 2

So for `AGCAAA` , the logged normalized RNA/DNA level without ligand (log10) turned out to be 1.98

So for `UGUUAU` , the logged normalized RNA/DNA level without ligand (log10) turned out to be 1.95

So for `AAAACU` , the logged normalized RNA/DNA level without ligand (log10) turned out to be 2.02

So for `GAGCCC` , the logged normalized RNA/DNA level without ligand (log10) turned out to be 2.02

So for `CCAGUG` , the logged normalized RNA/DNA level without ligand (log10) turned out to be 2.03

So for `UCUUAC` , the logged normalized RNA/DNA level without ligand (log10) turned out to be 2

So for `CUGAAC` , the logged normalized RNA/DNA level without ligand (log10) turned out to be 1.99

So for `ACUCUU` , the logged normalized RNA/DNA level without ligand (log10) turned out to be 2.01

So for `GCGUAU` , the logged normalized RNA/DNA level without ligand (log10) turned out to be 2.03

So for `CCAAGU` , the logged normalized RNA/DNA level without ligand (log10) turned out to be 2.04

So for `UCACAC` , the logged normalized RNA/DNA level without ligand (log10) turned out to be 2.05
